# Test system: anti-Aβ antibodies in sera of vaccinated patients
# testName: Epitope mapping, competitive binding inhibition EIA with patient sera (10-mer peptides, IC50)
# Parameters: species or system human
# conditionParameters: serum 16 wpi of vaccinated patient P103
property: Epitope mapping, fine specificity analysis, serum of subject P103
Answers are plain numbers.

Recorded Epitope mapping, fine specificity analysis, serum of subject P103, per entry:
INSERT INTO measurements (substance, targetdesc, result) VALUES
  ('11 (ISEVKMDAEF; PEPTIDE (1)..(10) Abeta -6-4 or APP 770(I666-F675); listed as Homo sapiens) [compound 11]', 'anti-Aβ antibodies in sera of vaccinated patients', 0),
  ('9 (EEISEVKMDA; PEPTIDE (1)..(10) Abeta -8-2 or APP 770(E664-A673); listed as Homo sapiens) [compound 9]', 'anti-Aβ antibodies in sera of vaccinated patients', 0),
  ('10 (EISEVKMDAE; PEPTIDE (1)..(10) Abeta -7-3 or APP 770(E665-E674); listed as Homo sapiens) [compound 10]', 'anti-Aβ antibodies in sera of vaccinated patients', 0),
  ('24 (GYEVHHQKLV; PEPTIDE (1)..(10) Abeta 9-18 or APP 770(G680-V689); listed as Homo sapiens) [compound 24]', 'anti-Aβ antibodies in sera of vaccinated patients', 0),
  ('15 (KMDAEFRHDS; PEPTIDE (1)..(10) Abeta -2-8 or APP 770(K670-S679); listed as Homo sapiens) [compound 15]', 'anti-Aβ antibodies in sera of vaccinated patients', 0);

Please give Epitope mapping, fine specificity analysis, serum of subject P103 for each item listed below.
1. 14 (VKMDAEFRHD; PEPTIDE (1)..(10) Abeta -3-7 or APP 770(V669-D678); listed as Homo sapiens) [compound 14]
2. 8 (TEEISEVKMD; PEPTIDE (1)..(10) Abeta -9-1 or APP 770(T663-D672); listed as Homo sapiens) [compound 8]
3. 22 (DSGYEVHHQK; PEPTIDE (1)..(10) Abeta 7-16 or APP 770(D678-K687); listed as Homo sapiens) [compound 22]
4. 16 (MDAEFRHDSG; PEPTIDE (1)..(10) Abeta -1-9 or APP 770(M671-G680); listed as Homo sapiens) [compound 16]

Reply |
[0, 0, 0, 0]

* * *

Exercise: state measured ELISA Titer titers (Log10) for each of the substances provided.
# System: anti-Aβ antibodies in sera from vaccinated baboons
# testName: Epitope mapping, 10-mer peptide-based ELISA with sera from vaccinated baboons
# conditionParameters: peptide as plate coating, 84 weeks post immunization
Please make sure the unit comes right after the number.

Observe how each entry below is paired with its result.
INSERT INTO measurements (substance, result) VALUES
  ('10 (EISEVKMDAE) [Peptide 10]', '0.16 Log10'),
  ('19 (FRHDSGYEVH) [Peptide 19]', '0.22 Log10'),
  ('24 (GYEVHHQKLV) [Peptide 24]', '0.19 Log10'),
  ('17 (AEFRHDSGYE) [Peptide 17]', '0.25 Log10'),
  ('23 (SGYEVHHQKL) [Peptide 23]', '0.51 Log10');

List the reported ELISA Titer titers (Log10) of each substance below.
1. 11 (ISEVKMDAEF) [Peptide 11]
2. 12 (SEVKMDAEFR) [Peptide 12]
3. 16 (MDAEFRHDSG) [Peptide 16]
4. 14 (VKMDAEFRHD) [Peptide 14]

Reply |
1: 0.15 Log10; 2: 0.16 Log10; 3: 0.16 Log10; 4: 0.48 Log10
